- test: Hepatocytes stability assay (human hepatocytes)
- Assay type: in vitro ADME
- condition_description: both sexes, cryopreserved hepatocytes, 1 μM test compound, 1×10^6 cell/mL, read-out: CLint (μL/min/million cells)
readout: hepatocyte CLint at 1 μM (µL/min/1e6 cells)

CS(=O)(=O)N[C@H]1CCN(c2cccc3ccnn23)CC1COC1CCC(c2ccccc2)CC1 (stereo partly shown) [Compound 42] :: 100
CS(=O)(=O)N[C@H]1CCN(c2ncccc2O)CC1COC1CCC(c2ccccc2)CC1 (stereo partly shown) [Compound 27] :: 75
CS(=O)(=O)N[C@H]1CCN(c2ccccn2)CC1COC1CCC(c2cnccn2)CC1 (stereo partly shown) [Compound 9] :: 45
CS(=O)(=O)N[C@H]1CCN(c2ccccn2)CC1COC1CCC(c2cncnc2)CC1 (stereo partly shown) [Compound 12] :: 35
CS(=O)(=O)N[C@H]1CCN(c2ccccn2)CC1COC1CCC(c2ccccc2)CC1 (stereo partly shown) [Compound 10] :: 73

(a) CS(=O)(=O)N[C@H]1CCN(c2ccccn2)CC1COC1CCC(c2ccccc2O)CC1 (stereo partly shown) [Compound 30]
(b) CS(=O)(=O)N[C@H]1CCN(c2ccccn2)CC1COC1CCC(c2ccc(O)cc2)CC1 (stereo partly shown) [Compound 32]
Q. Choose between a and b : whose measured hepatocyte CLint at 1 μM value is numerically larger? Write the label of whichever entry you select.
A. b
(b: 110 µL/min/1e6 cells, a: 45 µL/min/1e6 cells)

(I) Cc1cccc(C2CCC(OCC3CN(c4ccccn4)CC[C@@H]3NS(C)(=O)=O)CC2)c1C (stereo partly shown) [Compound 17]
(II) CS(=O)(=O)N[C@H]1CCN(c2nccc3ocnc23)CC1COC1CCC(c2ccccc2)CC1 (stereo partly shown) [Compound 45]
(III) Cc1ccccc1C1CCC(OCC2CN(c3ccccn3)CC[C@@H]2NS(C)(=O)=O)CC1 (stereo partly shown) [Compound 15]
Q. Form: Sort by [hepatocyte CLint at 1 μM] Order [ ascending ] Submit the labels in the order that the ranking request calls for.
A. I, III, II
(I: 32 µL/min/1e6 cells, III: 64 µL/min/1e6 cells, II: 103 µL/min/1e6 cells)

(A) CS(=O)(=O)N[C@H]1CCN(c2nccc3ncnn23)CC1COC1CCC(c2ccccc2)CC1 (stereo partly shown) [Compound 44]
(B) CS(=O)(=O)N[C@H]1CCN(c2ncccn2)CC1COC1CCC(c2ccccc2)CC1 (stereo partly shown) [Compound 19]
Q. Param metric = hepatocyte CLint at 1 μM; output whichever of A , B has the minimum value. Write the label of whichever entry you select.
A. B

(P) C[C@H](c1ccccc1)N1CC[C@H](NS(C)(=O)=O)C(COC2CCC(c3ccccc3)CC2)C1 (stereo partly shown) [Compound 38]
(Q) C[C@@]1(COC2CCC(c3ccccc3)CC2)CN(c2ccccn2)CC[C@@H]1NS(C)(=O)=O (stereo partly shown) [Compound 29]
Q. Choose between P and Q : whose measured hepatocyte CLint at 1 μM value is numerically larger? Write the label of whichever entry you select.
A. P
(P: 91 µL/min/1e6 cells, Q: 30 µL/min/1e6 cells)

====

- test: Hepatocytes stability assay (human hepatocytes)
- Assay type: in vitro ADME
- condition_description: both sexes, cryopreserved hepatocytes, 1 μM test compound, 1×10^6 cell/mL, read-out: CLint (μL/min/million cells)
readout: hepatocyte CLint at 1 μM (µL/min/1e6 cells)

CS(=O)(=O)N[C@H]1CCN(Cc2ccccn2)CC1COC1CCC(c2ccccc2)CC1 (stereo partly shown) :: 59

(I) CS(=O)(=O)N[C@H]1CCN(c2cccc(F)n2)CC1COC1CCC(c2ccccc2)CC1 (stereo partly shown)
(II) CS(=O)(=O)N[C@H]1CCN(c2ccccn2)CC1COC1CCC(c2ccccc2F)CC1 (stereo partly shown)
(III) CS(=O)(=O)N[C@H]1CCN(c2ccccn2)CC1COC1CCC(c2cccc(C(F)(F)F)c2)CC1 (stereo partly shown)
Q. Form: Sort by [hepatocyte CLint at 1 μM] Order [ ascending ] Submit the labels in the order that the ranking request calls for.
A. I, II, III
(I: 25 µL/min/1e6 cells, II: 49 µL/min/1e6 cells, III: 79 µL/min/1e6 cells)
